- methodSummary: Toxicity liver stage against HepG2, at 10uM
- Assay type: cell-based
- Set-up: test concentration 10 uM, cell line HepG2-A16-CD81EGFP
- conditionContext: human, HepG2-A16-CD81EGFP cells; read-out: INHIBITION
quantityName: cytotoxicity at 10 µM (%)
Return type: number; implicit unit %.

INPUT: Identify the reported cytotoxicity at 10 µM for the following entry. N#CC1COCCN1S(=O)(=O)c1ccc2ccccc2c1 (stereo not drawn)
OUTPUT: 6.45

INPUT: Given `Cc1nc([C@@H]2C[C@@H]3CCN(C(=O)Cc4ccsc4)C[C@H]3O2)no1` , respond with its cytotoxicity at 10 µM.
OUTPUT: 1.85

INPUT: Supply measured cytotoxicity at 10 µM of Cc1cccnc1C(Cc1ccsc1)NCc1cnc(N(C)C)nc1 (stereo not drawn) in your reply.
OUTPUT: 5.24

---

- methodSummary: Toxicity liver stage against HepG2, at 10uM
- Assay type: cell-based
- Parameters: test concentration 10 uM, cell line HepG2-A16-CD81EGFP
- conditionContext: human, HepG2-A16-CD81EGFP cells; read-out: INHIBITION
quantityName: cytotoxicity at 10 µM (%)
Kindly answer with a numeric value in %, unit omitted.

INPUT: Tell me its cytotoxicity at 10 µM given `O=C(Nc1ccc(CN2CCOCC2)cc1)c1nccn2ccnc12` as the entry.
OUTPUT: -8.3

INPUT: Name the recorded cytotoxicity at 10 µM of the compound listed here: `CN(CCc1ccc(F)cc1)Cc1nc2c(cnn2C)c(=O)[nH]1`
OUTPUT: -1.69

INPUT: Read off the recorded cytotoxicity at 10 µM for O=C(NCCO)C1(CC2CC(c3ccc(F)cc3)=NO2)CCOCC1 (centres undefined)
OUTPUT: -2.55

INPUT: Write down cytotoxicity at 10 µM measured for item O=C(c1ccc2c(c1)CCCC2)N1CCCC(n2cncn2)C1 (centres undefined)
OUTPUT: -8.51

---

Field: cytotoxicity at 10 µM. Provide a value for each of the compounds that follow.
- methodSummary: Toxicity liver stage against HepG2, at 10uM
- Assay type: cell-based
- Parameters: test concentration 10 uM, cell line HepG2-A16-CD81EGFP
- conditionContext: human, HepG2-A16-CD81EGFP cells; read-out: INHIBITION
Field: numeric (%). Do not append units.

INPUT: Provide one value: measured cytotoxicity at 10 µM of `O=C(NCc1nc[nH]n1)c1cc(COc2ccccc2F)[nH]n1`
OUTPUT: -3.58

INPUT: Could you please provide reported cytotoxicity at 10 µM for `COc1ccc(CN2CCNC(=O)CC2)cc1SC(F)(F)F` ? Thanks!
OUTPUT: 0.66

INPUT: Report cytotoxicity at 10 µM for `Cn1cc(C(=O)Nc2ccnc(Oc3ccccc3)c2)ccc1=O`
OUTPUT: -4.5

INPUT: Report cytotoxicity at 10 µM, nothing else, for this compound: `COCC(=O)Nc1ccnc(OCCN(C)C)c1`
OUTPUT: -7.67

INPUT: Fill in reported cytotoxicity at 10 µM for this entry: CCC(=O)N1CCC2(CC1)CC(N1CCOCC1)c1cc(C)ccc12 (stereo not given)
OUTPUT: -149

INPUT: Please report cytotoxicity at 10 µM for the following compound: `O=C(Nc1cnc(C2CC2)nc1)N1CCCC1`
OUTPUT: -14.9

INPUT: Consider the compound `Cc1cn(-c2ccccc2)nc1NS(=O)(=O)c1cc(C(=O)O)sc1C` and give its recorded cytotoxicity at 10 µM.
OUTPUT: -4.87

INPUT: Identify measured cytotoxicity at 10 µM associated with CN1CCC(N(C)CCC(=O)N2CCC(Cc3ccc(F)cc3)CC2)C1 (stereo not given)
OUTPUT: -1.9

INPUT: Given c1ccc(-c2cnc(CNC3CCCN(c4cccnn4)C3)o2)cc1 (stereo not given) , respond with its cytotoxicity at 10 µM.
OUTPUT: 0.993

INPUT: State its cytotoxicity at 10 µM: `O=S(=O)(Cc1ccccc1F)Cc1nnnn1C1CC1`
OUTPUT: -16.5

INPUT: State its cytotoxicity at 10 µM: `Cc1oncc1C(=O)N[C@@H]1CN(C2CCC2)C[C@@H]2CCCO[C@@H]21`
OUTPUT: -109

INPUT: Entry COc1ccc2ccccc2c1CNCC1CCS(=O)(=O)C1 (stereo not given) needs its cytotoxicity at 10 µM filled in; supply it.
OUTPUT: 4.51

INPUT: Input `Cc1noc(C)c1-c1cccc(C2CCNCC2)n1` , output reported cytotoxicity at 10 µM.
OUTPUT: 2.98

INPUT: Fill in reported cytotoxicity at 10 µM for this entry: Cn1cc(C2CCCN2C(=O)CCCOc2ccc(F)cc2)cn1 (stereo not given)
OUTPUT: -17.8

INPUT: Output cytotoxicity at 10 µM of CCCSCC(=O)N1CCCC(CO)(CCC)C1 (stereo not given)
OUTPUT: 4.86

INPUT: Using the record for `Cc1cc(C(=O)N2CC(=O)Nc3cnccc32)c(Cl)cc1F` , state its measured cytotoxicity at 10 µM.
OUTPUT: 3.07

INPUT: In one line, give reported cytotoxicity at 10 µM of the entry COCC1c2nnn(CC3CC3)c2CCN1C(=O)CS(C)(=O)=O (stereo not given) .
OUTPUT: -129

INPUT: Give the reported cytotoxicity at 10 µM for this compound. Cc1nccn1CCCNC(=O)C1CCCCN1Cc1ccncc1 (stereo not given)
OUTPUT: -8.18

INPUT: Look up cytotoxicity at 10 µM of Cc1nccn1C1CCCN(C(=O)Cc2cn3ccccc3n2)C1 (stereo not given) and report it.
OUTPUT: -20.9

INPUT: Please supply the value of reported cytotoxicity at 10 µM for the item `Cc1ccc(Cl)c(CN2CCC(c3nccn3C(C)C)CC2)c1F`
OUTPUT: 4.8

INPUT: For the compound `O=C1CCOC[C@]2(CN(Cc3ccccc3)C[C@H]2c2cccc(F)c2)N1` , give its measured cytotoxicity at 10 µM value.
OUTPUT: -0.0186

INPUT: Identify the reported cytotoxicity at 10 µM for the following entry. CCC(C)NC(=O)CS(=O)(=O)Cc1nc(-c2cccs2)no1 (stereo not given)
OUTPUT: 2.04

INPUT: Give the measured cytotoxicity at 10 µM for CCc1n[nH]c(C2CN(C(=O)c3ccc(Cl)cn3)CCO2)n1 (stereo not given)
OUTPUT: -18.3

INPUT: Look up and report measured cytotoxicity at 10 µM for this entry: `O[C@@H]1C[C@H]2CN(Cc3ccsc3)[C@@H](Cc3ccccc3)CN2C1`
OUTPUT: -2.13

INPUT: # return recorded cytotoxicity at 10 µM for input Nc1ncc(-c2ccc(F)cc2)c(C2CCCNC2)n1 (stereo not given)
OUTPUT: 0.109

INPUT: Answer with the recorded cytotoxicity at 10 µM of Cc1nc(C2CCCN2CCCNS(C)(=O)=O)no1 (stereo not given) only.
OUTPUT: -8.6

INPUT: Using known records, supply cytotoxicity at 10 µM for `CC(=O)NCc1nnn2c1CN(c1ncc(C)cn1)CCC2`
OUTPUT: -102

INPUT: Query cytotoxicity at 10 µM for CCS(=O)(=O)N1CC(=O)N(Cc2ccccc2OC)CC(O)C1 (stereo not given)
OUTPUT: -95.5

INPUT: Identify the reported cytotoxicity at 10 µM for the following entry. `CCS(=O)(=O)c1nccn1-c1cccc(F)c1`
OUTPUT: 3.12

INPUT: For the compound `Cc1ccc(N(C)S(=O)(=O)c2cc(C(=O)O)cs2)cc1` , report cytotoxicity at 10 µM.
OUTPUT: 0.0898

---

- methodSummary: Toxicity liver stage against HepG2, at 10uM
- Type: cell-based
- Parameters: test concentration 10 uM, cell line HepG2-A16-CD81EGFP
- conditionContext: human, HepG2-A16-CD81EGFP cells; read-out: INHIBITION
I'd be grateful if you could share measured cytotoxicity at 10 µM for these entries.
// return numeric value only (unit: %, not printed)

INPUT: Fill in cytotoxicity at 10 µM for record COc1cccc(C(O)CN2CCN(c3cccc(C)c3)CC2)c1 (stereo not drawn)
OUTPUT: -3.85

INPUT: Specify reported cytotoxicity at 10 µM for the compound shown: CCC(=O)N1CCC(c2ncc(C(=O)Nc3ccccc3)c(C)n2)C1 (stereo not drawn)
OUTPUT: 6.96

INPUT: Kindly indicate its recorded cytotoxicity at 10 µM. Item: `C[C@@H]1CN(C(=O)Cn2ccc3ncccc3c2=O)C[C@H](C)O1`
OUTPUT: -5.64

INPUT: Give the reported value of cytotoxicity at 10 µM for this record: CC(C)Cn1cncc1CNC1CCCNC1 (stereo not drawn)
OUTPUT: -0.391

INPUT: Specify reported cytotoxicity at 10 µM for the compound shown: `N#Cc1ccc(F)c(CN2CCc3sccc3C2)c1`
OUTPUT: -3.09

INPUT: Using known records, supply cytotoxicity at 10 µM for CN1CCC2(Cc3ccccc3NC2=O)C1 (stereo not drawn)
OUTPUT: 9.82

INPUT: Supply measured cytotoxicity at 10 µM of `COC(=O)Cn1c(C)cc(=O)n2nc(-c3cccs3)nc12` in your reply.
OUTPUT: 8.74

INPUT: For N#Cc1ccc(F)c(CN2CCCCC2Cn2cccn2)c1 (stereo not drawn) , write its cytotoxicity at 10 µM.
OUTPUT: -0.674

INPUT: Please give measured cytotoxicity at 10 µM of the following entry: COCCOCC(=O)N1CCCC(c2ncc[nH]2)C1 (stereo not drawn)
OUTPUT: -4.59

INPUT: Return the recorded cytotoxicity at 10 µM value; entry: COc1cccc(CNC(=O)C(C)N2CC(n3nc(C)cc3C)C2)c1 (stereo not drawn)
OUTPUT: 0.868

INPUT: Please indicate cytotoxicity at 10 µM recorded for CCN(CC)C(=O)C(c1ccccc1)N1CCn2c(C)nnc2C1 (stereo not drawn)
OUTPUT: 5.57

INPUT: Identify measured cytotoxicity at 10 µM associated with `Cc1cc(C2CCC2)nc(N(C)Cc2cc(-c3ccccn3)no2)n1`
OUTPUT: 21.2

INPUT: Answer with the recorded cytotoxicity at 10 µM of `O=C1CCNc2ncc(-c3ccc(Cl)cc3)cc2CN1C1CC1` only.
OUTPUT: 9.78

INPUT: Tell me its cytotoxicity at 10 µM given `CC(C)c1ncc(CN2C[C@@H](CN3CCC(CO)CC3)[C@@H](CO)C2)cn1` as the entry.
OUTPUT: 20

INPUT: Please report the measured cytotoxicity at 10 µM for `Cc1cnn(CCNCc2ccc(S(C)(=O)=O)cc2)c1`
OUTPUT: 7.55

INPUT: Supply recorded cytotoxicity at 10 µM for CC(C)CCOc1ccc(C(C)NC(=O)CSCC(N)=O)cc1 (stereo not drawn) here.
OUTPUT: 10.5

INPUT: Consider the compound `Cc1ccccc1CS(=O)(=O)CC(=O)N(C)Cc1ccccc1` . State its measured cytotoxicity at 10 µM.
OUTPUT: 2.84

INPUT: Answer with the recorded cytotoxicity at 10 µM for the compound listed here: Cc1cnn(CC2CCCN2C(=O)Cc2ccc3c(c2)CCO3)c1 (stereo not drawn)
OUTPUT: -144

INPUT: Report cytotoxicity at 10 µM, nothing else, for this compound: `Cc1nc(CN2CCc3c(nc(C4CC4)n3C)C2)nc2ccccc12`
OUTPUT: 7.36

INPUT: State its cytotoxicity at 10 µM: CN1CCN(c2ccccc2NC(=O)NCC[S+](C)[O-])CC1 (stereo not drawn)
OUTPUT: -2.41

INPUT: Look up and state reported cytotoxicity at 10 µM for CC(C)Oc1cccc(CNC(Cc2ccsc2)c2nccs2)c1 (stereo not drawn)
OUTPUT: 0.732

INPUT: Provide measured cytotoxicity at 10 µM value, entry: O=C(O)CSC1CCc2ccccc2NC1=O (stereo not drawn)
OUTPUT: 1.13

INPUT: Return the recorded cytotoxicity at 10 µM value; entry: Cc1cnn(CC2CCCCN2C(=O)c2cc(Cl)c[nH]2)c1 (stereo not drawn)
OUTPUT: -5.4
